- Test Name: in vitro
- Assay type: cell-based
- Run Parameters: human, mt-4 cells
Field: label. Allowed values: yes (1) (CC50 < 20 mg/L) or no (0) (CC50 >= 20 mg/L).

Check out these entries, answers already filled in.
# Molecule, Answer Label
records = [
    ("Cc1cc(NC(C(N)=O)c2c(Cl)ccc(Cl)c2Cl)c([N+](=O)[O-])cc1C (stereo not shown) [Compound 28]", "yes (1)"),
    ("Cc1cc(NC(C(N)=O)c2c(Cl)cccc2Cl)c([N+](=O)[O-])cc1C (stereo not shown) [Compound 24]", "no (0)"),
]

Read the next record carefully.
Problem: Does the reported CC50 of CC(=O)c1ccccc1NC(C(N)=O)c1c(Cl)cccc1Cl (racemic) [Compound 22] stay below 20 mg/L?
Result: no (0)

---

Consider the following molecules and their measured EC50 readings.
- Tested on: HIV-1
- Test Name: in-vitro anti-HIV assay: inhibition of HIV-induced cytopathic effect in MT-4 cells (MTT)
- Assay type: cell-based
- Run Parameters: Human immunodeficiency virus 1, MT4; HIV-infected MT-4 cells, cytopathic effect, MTT, 540 nm; read-out: ED50 (dose achieving 50% protection)
Numbers only; they are read as mg/L.

Solved cases (2 shown):
# Molecule, Unit Of Measurement, EC50
measured = [
    ("Cc1ccc([N+](=O)[O-])c(NC(C(N)=O)c2c(Cl)cccc2Cl)c1 (single isomer, unassigned) [Compound 29]", "mg/L", 0.0032),
    ("Cc1cc(NC(C(N)=O)c2c(Cl)cccc2Cl)c([N+](=O)[O-])cc1C (stereo not shown) [Compound 24]", "mg/L", 0.077),
]

Problem: Reported EC50 for Cc1cc(NC(C(N)=O)c2c(Cl)ccc(Cl)c2Cl)c([N+](=O)[O-])cc1C (stereo not shown) [Compound 28] : what is it?
Result: 0.07

Problem: Reported EC50 for Cc1cc(C)c([N+](=O)[O-])c(NC(C(N)=O)c2c(Cl)cccc2Cl)c1 (stereo not shown) [Compound 27] : what is it?
Result: 0.049

Problem: Reported EC50 for CC(=O)c1ccc(Cl)cc1NC(C(N)=O)c1c(Cl)cccc1Cl (stereo not shown) [Compound 30] : what is it?
Result: 0.011

Problem: Reported EC50 for Cc1ccc([N+](=O)[O-])c(NC(C(N)=O)c2c(Cl)cccc2Cl)c1 (stereo not shown) [Compound 26] : what is it?
Result: 0.057

---

Consider the following molecules and their measured CC50 readings.
- Test Name: in vitro
- Format: cell-based
- Run Parameters: human, mt-4 cells
Numbers only; they are read as µg/mL.

# Molecule, Unit Of Measurement, Value Reported
rows = [
    ("CC(=O)c1ccccc1NC(C(N)=O)c1c(Cl)cccc1Cl (single isomer, unassigned) [Compound 23]", "µg/mL", 20),
    ("NC(=O)C(Nc1ccccc1[N+](=O)[O-])c1c(Cl)cccc1Cl (stereo not shown) [Compound 15]", "µg/mL", 20),
    ("Cc1ccc([N+](=O)[O-])c(NC(C(N)=O)c2c(Cl)cccc2Cl)c1 (single isomer, unassigned) [Compound 29]", "µg/mL", 5),
    ("NC(=O)C(Nc1ccccc1[N+](=O)[O-])c1c(Cl)cccc1Cl (single isomer, unassigned; (-)) [Compound 25]", "µg/mL", 29),
    ("Cc1cc(C)c([N+](=O)[O-])c(NC(C(N)=O)c2c(Cl)cccc2Cl)c1 (stereo not shown) [Compound 27]", "µg/mL", 5),
]

Could you now consider this next molecule?
Problem: Reported CC50 for CC(=O)c1ccc(Cl)cc1NC(C(N)=O)c1c(Cl)cccc1Cl (stereo not shown) [Compound 30] : what is it?
Result: 200

---

- System: HIV-1
- Test Name: in-vitro anti-HIV assay: inhibition of HIV-induced cytopathic effect in MT-4 cells (MTT)
- Format: cell-based
- Run Parameters: Human immunodeficiency virus 1, MT4; HIV-infected MT-4 cells, cytopathic effect, MTT, 540 nm; read-out: ED50 (dose achieving 50% protection)
Measurement Kind: EC50 (µg/mL)
Numbers only; they are read as µg/mL.

# Compound, Unit Of Measurement, EC50
data = [
    ("NC(=O)C(Nc1ccccc1[N+](=O)[O-])c1c(Cl)cccc1Cl (stereo not shown) [Compound 15]", "µg/mL", 0.02),
    ("CC(=O)c1ccccc1NC(C(N)=O)c1c(Cl)cccc1Cl (racemic) [Compound 22]", "µg/mL", 0.013),
    ("NC(=O)C(Nc1ccccc1[N+](=O)[O-])c1c(Cl)cccc1Cl (single isomer, unassigned; (-)) [Compound 25]", "µg/mL", 0.018),
]

Could you now consider this next compound?
Problem: Reported EC50 for CC(=O)c1ccccc1NC(C(N)=O)c1c(Cl)cccc1Cl (single isomer, unassigned) [Compound 23] : what is it?
Result: 0.0066
